# Assayed Target: Cannabinoid receptor 1 (Mus musculus)
# Sequence (P47746 whole entry): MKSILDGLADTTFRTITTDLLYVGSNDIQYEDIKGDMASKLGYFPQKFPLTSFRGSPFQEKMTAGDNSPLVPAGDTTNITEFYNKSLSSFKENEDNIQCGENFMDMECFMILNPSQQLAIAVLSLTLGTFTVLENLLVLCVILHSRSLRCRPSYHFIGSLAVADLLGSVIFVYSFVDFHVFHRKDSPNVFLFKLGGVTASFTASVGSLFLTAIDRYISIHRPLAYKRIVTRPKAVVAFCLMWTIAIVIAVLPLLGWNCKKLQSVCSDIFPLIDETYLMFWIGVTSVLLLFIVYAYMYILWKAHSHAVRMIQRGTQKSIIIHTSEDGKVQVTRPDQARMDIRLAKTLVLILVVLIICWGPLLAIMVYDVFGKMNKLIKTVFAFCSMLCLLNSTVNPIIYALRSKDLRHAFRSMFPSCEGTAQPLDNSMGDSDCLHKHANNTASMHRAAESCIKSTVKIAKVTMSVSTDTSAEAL
pKi: −log10 of the molar value.
Tick label 1 if pKi is 6 or greater. Tick label 0 if pKi is less than 6.

These solved cases illustrate the format of a correct answer.
Molecule	Assayed Target	Class Assignment
Cc1ccc2c(c1)Cc1c(C(=O)Nc3ccc(Cl)c(Cl)c3)nn(-c3ccc(Cl)cc3Cl)c1-2	Cannabinoid receptor 1 (Mus musculus)	label 0
Cc1ccc2c(c1)Cc1c(C(=O)NNc3ccccc3)nn(-c3ccc(Cl)cc3Cl)c1-2	Cannabinoid receptor 1 (Mus musculus)	label 0
CCCCCCC(C)(C)c1ccc(C2CC(O)CC[C@H]2CCCO)c(O)c1 (single isomer, unassigned)	Cannabinoid receptor 1 (Mus musculus)	label 1

-- ask Form field: pKi at least 6? Entry: "Cc1ccc(NC(=O)c2nn(-c3ccc(Cl)cc3Cl)c3c2Cc2cc(C)ccc2-3)cc1"
-- reply label 0

----------
# Assayed Target: Cannabinoid receptor 2 (Homo sapiens) (UniProt P34972)
# Sequence (P34972 whole entry): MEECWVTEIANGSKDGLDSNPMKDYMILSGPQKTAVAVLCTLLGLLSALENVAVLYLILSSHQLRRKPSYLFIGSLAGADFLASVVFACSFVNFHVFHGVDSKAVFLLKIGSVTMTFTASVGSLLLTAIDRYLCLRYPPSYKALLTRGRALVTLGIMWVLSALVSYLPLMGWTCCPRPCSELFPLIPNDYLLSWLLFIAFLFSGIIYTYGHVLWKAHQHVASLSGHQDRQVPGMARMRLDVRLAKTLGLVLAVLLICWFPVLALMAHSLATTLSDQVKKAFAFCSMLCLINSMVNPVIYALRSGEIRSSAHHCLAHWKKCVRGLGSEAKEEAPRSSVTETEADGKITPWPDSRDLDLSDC
# Protocol Notes: Intrinsic activity at CB2 receptor assessed as induction of ERK1/2 phosphorylation in HL60 cells at 10 nM after 10 mins relative to control
# Type: functional, cell-based
# Condition Description: HL-60, filed as agonist
Result Type: Activity

Cc1ccc2c(c1)Cc1c(C(=O)Nc3ccccc3)nn(-c3ccc(Cl)cc3Cl)c1-2 Agonist
Cc1ccc2c(c1)Cc1c(C(=O)NN3CCCCC3)nn(-c3ccc(Cl)cc3Cl)c1-2 Agonist
Cc1ccc2c(c1)Cc1c(C(=O)NC3CCCCC3)nn(-c3ccc(Cl)cc3Cl)c1-2 Agonist
O=C(NN1CCCCC1)c1nn(-c2ccc(Cl)cc2Cl)c2c1Cc1cc(Cl)ccc1-2 Agonist

----------
// each record: one item and its Ki for Cannabinoid receptor 1 (Mus musculus)

Cc1ccc2c(c1)Cc1c(C(=O)Nc3ccccc3)nn(-c3ccc(Cl)cc3Cl)c1-2 2.41 µM
COc1ccc(NC(=O)c2nn(-c3ccc(Cl)cc3Cl)c3c2Cc2cc(C)ccc2-3)cc1 > 10 µM
Cc1ccc2c(c1)Cc1c(C(=O)Nc3ccc(Cl)cc3)nn(-c3ccc(Cl)cc3Cl)c1-2 > 10 µM

-- ask Record "Cc1ccc2c(c1)Cc1c(C(=O)Nc3ccc(C(F)(F)F)cc3)nn(-c3ccc(Cl)cc3Cl)c1-2" : what is its Ki with Cannabinoid receptor 1 (Mus musculus)?
-- reply > 10 µM

-- ask Record "Cc1ccc2c(c1)Cc1c(C(=O)NNc3ccc([N+](=O)[O-])cc3)nn(-c3ccc(Cl)cc3Cl)c1-2" : what is its Ki with Cannabinoid receptor 1 (Mus musculus)?
-- reply 4.5 µM

-- ask Record "COc1ccc(NNC(=O)c2nn(-c3ccc(Cl)cc3Cl)c3c2Cc2cc(C)ccc2-3)cc1" : what is its Ki with Cannabinoid receptor 1 (Mus musculus)?
-- reply > 5 µM

----------
# Assayed Target: Cannabinoid receptor 2 (Mus musculus)
# Sequence (P47936 whole entry): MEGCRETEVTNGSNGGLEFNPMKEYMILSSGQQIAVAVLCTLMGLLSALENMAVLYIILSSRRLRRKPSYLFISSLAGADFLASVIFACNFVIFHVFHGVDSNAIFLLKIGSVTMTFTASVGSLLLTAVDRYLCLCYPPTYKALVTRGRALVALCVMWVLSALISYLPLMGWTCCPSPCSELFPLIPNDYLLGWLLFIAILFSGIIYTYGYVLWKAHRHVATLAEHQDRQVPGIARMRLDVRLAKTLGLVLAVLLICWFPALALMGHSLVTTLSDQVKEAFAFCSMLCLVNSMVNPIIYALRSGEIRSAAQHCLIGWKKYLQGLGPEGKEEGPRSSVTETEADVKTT
Criterion: Ki strictly under 60 nM. Met: true (1). Not met: false (0).

These solved cases illustrate the format of a correct answer.
Molecule	Class Assignment
Cc1ccc2c(c1)Cc1c(C(=O)NNc3ccc([N+](=O)[O-])cc3)nn(-c3ccc(Cl)cc3Cl)c1-2	false (0)
Cc1ccc2c(c1)Cc1c(C(=O)NN3CCCCC3)nn(-c3ccc(Cl)cc3Cl)c1-2	true (1)
Cc1ccc2c(c1)Cc1c(C(=O)NC3CCCCC3)nn(-c3ccc(Cl)cc3Cl)c1-2	true (1)
Cc1ccc2c(c1)Cc1c(C(=O)Nc3ccc(Cl)cc3Cl)nn(-c3ccc(Cl)cc3Cl)c1-2	false (0)
Cc1ccc(NC(=O)c2nn(-c3ccc(Cl)cc3Cl)c3c2Cc2cc(C)ccc2-3)cc1	false (0)
COc1ccc(NC(=O)c2nn(-c3ccc(Cl)cc3Cl)c3c2Cc2cc(C)ccc2-3)cc1	false (0)

-- ask Ki under 60 nM? Item: "Cc1ccc2c(c1)Cc1c(C(=O)NNc3ccccc3)nn(-c3ccc(Cl)cc3Cl)c1-2"
-- reply false (0)

-- ask Ki under 60 nM? Item: CCCCCCC(C)(C)c1ccc(C2CC(O)CC[C@H]2CCCO)c(O)c1 (single isomer, unassigned)
-- reply true (1)

-- ask Ki under 60 nM? Item: "Cc1ccc2c(c1)Cc1c(C(=O)Nc3ccc(C(F)(F)F)cc3)nn(-c3ccc(Cl)cc3Cl)c1-2"
-- reply false (0)

-- ask Ki under 60 nM? Item: "Cc1ccc2c(c1)Cc1c(C(=O)Nc3ccccc3)nn(-c3ccc(Cl)cc3Cl)c1-2"
-- reply true (1)

-- ask Ki under 60 nM? Item: "Cc1ccc2c(c1)Cc1c(C(=O)Nc3ccc(Cl)cc3)nn(-c3ccc(Cl)cc3Cl)c1-2"
-- reply false (0)

-- ask Ki under 60 nM? Item: "Cc1cc2c(cc1Cl)-c1c(c(C(=O)NN3CCCCC3)nn1-c1ccc(Cl)cc1Cl)C2"
-- reply false (0)

-- ask Ki under 60 nM? Item: "Cc1ccc2c(c1)Cc1c(C(=O)NNc3ccc(Cl)cc3)nn(-c3ccc(Cl)cc3Cl)c1-2"
-- reply false (0)

-- ask Ki under 60 nM? Item: "Cc1ccc2c(c1)Cc1c(C(=O)Nc3ccc(Cl)c(Cl)c3)nn(-c3ccc(Cl)cc3Cl)c1-2"
-- reply false (0)

-- ask Ki under 60 nM? Item: "COc1ccc(NNC(=O)c2nn(-c3ccc(Cl)cc3Cl)c3c2Cc2cc(C)ccc2-3)cc1"
-- reply false (0)

----------
# Assayed Target: Cannabinoid receptor 2 (Homo sapiens)
# Protocol Notes: Intrinsic activity at CB2 receptor assessed as induction of ERK1/2 phosphorylation in HL60 cells at 10 nM after 10 mins relative to control
# Assay type: functional, cell-based
# Condition Description: HL-60
Known Activity of a selection of molecules
Report only the number, with the unit % understood.

Sample records with Activity:
Cc1ccc2c(c1)Cc1c(C(=O)NC3CCCCC3)nn(-c3ccc(Cl)cc3Cl)c1-2 61.3
O=C(NN1CCCCC1)c1nn(-c2ccc(Cl)cc2Cl)c2c1Cc1cc(Cl)ccc1-2 65
Cc1ccc2c(c1)Cc1c(C(=O)Nc3ccccc3)nn(-c3ccc(Cl)cc3Cl)c1-2 125

Next, consider the following molecule.
-- ask Record request: Activity value, item "Cc1ccc2c(c1)Cc1c(C(=O)NN3CCCCC3)nn(-c3ccc(Cl)cc3Cl)c1-2"
-- reply 83

----------
# Assayed Target: Cannabinoid receptor (Mus musculus) (UniProt P47746+P47936)
# Sequence (P47746 whole entry, looked up): as the sequence (P47746 whole entry) above
# Sequence (P47936 whole entry, looked up): as the sequence (P47936 whole entry) above
# Protocol Notes: Selectivity for CD1 mouse CB2 receptor over CB1 receptor
# Type: protein assay
Result Type: Ratio Ki
Please reply with the number alone, leaving off any unit.

Sample records with Ratio Ki:
Cc1cc2c(cc1Cl)-c1c(c(C(=O)NN3CCCCC3)nn1-c1ccc(Cl)cc1Cl)C2 4.6
Cc1ccc2c(c1)Cc1c(C(=O)Nc3ccccc3)nn(-c3ccc(Cl)cc3Cl)c1-2 73
Cc1ccc2c(c1)Cc1c(C(=O)NC3CCCCC3)nn(-c3ccc(Cl)cc3Cl)c1-2 118
Cc1ccc2c(c1)Cc1c(C(=O)NNc3ccc([N+](=O)[O-])cc3)nn(-c3ccc(Cl)cc3Cl)c1-2 2
Cc1ccc(Cn2nc(C(=O)N[C@@H]3C(C)(C)[C@@H]4CC[C@@]3(C)C4)cc2-c2ccc(Cl)c(C)c2)cc1 250

-- ask Record request: Ratio Ki value, item "Cc1ccc2c(c1)Cc1c(C(=O)NNc3ccccc3)nn(-c3ccc(Cl)cc3Cl)c1-2"
-- reply 36

-- ask Record request: Ratio Ki value, item "Cc1cc2c(cc1Cl)Cc1c(C(=O)NN3CCCCC3)nn(-c3ccc(Cl)cc3Cl)c1-2"
-- reply 14

-- ask Record request: Ratio Ki value, item "O=C(NN1CCCCC1)c1nn(-c2ccc(Cl)cc2Cl)c2c1Cc1cc(Cl)ccc1-2"
-- reply 6030

-- ask Record request: Ratio Ki value, item "Cc1cc2c(cc1Cl)-c1c(c(C(=O)NC3CCCCC3)nn1-c1ccc(Cl)cc1Cl)C2"
-- reply 33

-- ask Record request: Ratio Ki value, item "Cc1ccc2c(c1)Cc1c(C(=O)NN3CCCCC3)nn(-c3ccc(Cl)cc3Cl)c1-2"
-- reply 9810

----------
// each record: one item and its Ki for Cannabinoid receptor 1 (Mus musculus, UniProt P47746)
Report only the number, with the unit nM understood.

Sample records with Ki:
Cc1ccc2c(c1)Cc1c(C(=O)NC3CCCCC3)nn(-c3ccc(Cl)cc3Cl)c1-2 900
Cc1ccc2c(c1)Cc1c(C(=O)Nc3ccc(Cl)cc3Cl)nn(-c3ccc(Cl)cc3Cl)c1-2 2630

Next, consider the following compound.
-- ask Record request: Ki value, item "Cc1ccc2c(c1)Cc1c(C(=O)NN3CCCCC3)nn(-c3ccc(Cl)cc3Cl)c1-2"
-- reply 363
